# Test system: LXFL 529
# Experiment notes: NCI tumour cell line growth inhibition, 48 h
Calls of active or inactive are those of the source. No stated cut-off is given here; in the data, active = GI50 up to about 1.1 µM and inactive = higher.
Outcomes: active, inactive

- Compound: "O=S(=O)(c1ccccc1)n1cc(C[P+](c2ccccc2)(c2ccccc2)c2ccccc2)c2ccccc21"
  Qualitative label: "inactive"
- Compound: "CSCCOC(=O)C(=[N+]=[N-])c1ccc([N+](=O)[O-])cc1"
  Qualitative label: "inactive"
- Compound: "COc1ccc([Se][Se]c2ccc(OC)cc2OC)c(OC)c1"
  Qualitative label: "inactive"
- Compound: "COc1ccc2nc(NC(=O)C(=O)C(C#N)c3ccc([N+](=O)[O-])cc3)sc2c1 (configuration not stated)"
  Qualitative label: "inactive"
- Compound: "CCC(O)C1Cc2c(C)cc3c(c2O1)C(=O)c1ccccc1C3=O (configuration not stated)"
  Qualitative label: "inactive"
- Compound: "CCOc1cc2ccc3c4cc(OC)c(OC)cc4cnc3c2cc1OCC"
  Qualitative label: "inactive"
- Compound: "COc1cccc2c1c1ccc3c(c1n2C)C(=O)C=CC3=O"
  Qualitative label: "inactive"
- Compound: "COC(=O)C(=O)C(C(=O)C(=O)Nc1ccccc1C(N)=O)c1nc2ccc(C(=O)c3ccccc3)cc2nc1O (configuration not stated)"
  Qualitative label: "inactive"
- Compound: "CCCCC(N)CSSCC(N)CCCC (configuration not stated)"
  Qualitative label: "inactive"
- Compound: "COc1ccc2c(c1OCC(=O)O)C(=O)C(CCC(=O)O)CC2 (configuration not stated)"
  Qualitative label: "inactive"
- Compound: "Cc1ccc2nc(NC(=O)/C(=N\\NC(=S)NN)C3C(=O)NC(=S)NC3=O)sc2c1"
  Qualitative label: "inactive"
- Compound: "O=C1C=CC(=O)C2=C1[C@@H](O)C1CC=CC3C(=O)O[C@@H]2C31 (some centres not stated)"
  Qualitative label: "inactive"
- Compound: "C=COCCCOc1ccccc1"
  Qualitative label: "inactive"
- Compound: "CCOC(C[C@H](O[Si](C)(C)C(C)(C)C)[C@H]1COC(=S)S1)OCC"
  Qualitative label: "inactive"
- Compound: "COc1cc2c(cc1O)CCN[C@@]21CS[C@H]2c3c(OC(C)=O)c(C)c4c(c3C(COC1=O)N1C2C2NC(Cc3cc(C)c(OC)c(O)c32)[C@@H]1C#N)OCO4 (some centres not stated)"
  Qualitative label: "active"
- Compound: "C=C1CCC2C(C)(CO)C(O)CCC2(C)C1CC(O)C1=CCOC1=O (configuration not stated)"
  Qualitative label: "inactive"
- Compound: "CCCCCCCCCCCCCc1nnn[nH]1"
  Qualitative label: "inactive"
